Listing: inhibition of selected molecules
TARGET_SYSTEM: Mannose-6-phosphate isomerase (Homo sapiens) (UniProt P34949)
Sequence (P34949 whole entry, looked up): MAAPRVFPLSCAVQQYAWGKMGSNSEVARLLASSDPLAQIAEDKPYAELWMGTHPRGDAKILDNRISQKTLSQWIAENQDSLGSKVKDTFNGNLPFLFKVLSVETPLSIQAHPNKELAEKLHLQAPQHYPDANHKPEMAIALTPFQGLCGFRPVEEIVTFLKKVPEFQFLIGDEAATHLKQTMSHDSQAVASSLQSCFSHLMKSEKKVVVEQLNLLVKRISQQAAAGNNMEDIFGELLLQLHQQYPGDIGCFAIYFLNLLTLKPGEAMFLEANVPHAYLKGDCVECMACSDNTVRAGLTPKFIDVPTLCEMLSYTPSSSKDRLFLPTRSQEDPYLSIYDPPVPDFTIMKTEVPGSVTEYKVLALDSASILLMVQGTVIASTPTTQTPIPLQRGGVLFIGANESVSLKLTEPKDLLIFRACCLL
PROCEDURE_DETAILS: MPI inhibition at elevated mannose 6-phosphate – biochemical, fluorescence intensity, high mannose 6-phosphate, primary screen (AID 1220)
CONDITION_SET: recombinant PMI enzyme, coupled fluorescence intensity; at 20 µM; stronger effect = higher value
In all, about 190,000 compounds went through this assay and about 1,300 (0.68%) were called active. Many of the other results were omitted from the sample, so actives are more common in it than they were.
MEASURED_PARAMETER: inhibition (%)

MOLECULE: Cc1cc(C)c(S(=O)(=O)Nc2ccc(O)c(Sc3ncn[nH]3)c2)c(C)c1
MEASURED_PARAMETER: inhibition
REPORTED: 13.7

MOLECULE: CC1=CC(C)(C)N(C(=O)CSc2ncn[nH]2)c2ccccc21
MEASURED_PARAMETER: inhibition
REPORTED: -9.5

MOLECULE: Fc1cccc(Cl)c1/C=N/Nc1c(Cl)cncc1Cl
MEASURED_PARAMETER: inhibition
REPORTED: 8.5

MOLECULE: COc1ccc(-n2c(N)c(C#N)c3ccc([N+](=O)[O-])cc3c2=O)cc1
MEASURED_PARAMETER: inhibition
REPORTED: 52.3

MOLECULE: Cc1cc(C)c(S(=O)(=O)/N=C2/C=C(Sc3ncn[nH]3)C(=O)c3ccccc32)cc1C
MEASURED_PARAMETER: inhibition
REPORTED: 90.3

MOLECULE: Cc1ccc(S(=O)(=O)Nc2ccc(O)c(Sc3ncn[nH]3)c2)cc1
MEASURED_PARAMETER: inhibition
REPORTED: 27.6

MOLECULE: CCCCc1cc2c(c(NC(=O)CC)n1)c(=O)oc1ccccc12
MEASURED_PARAMETER: inhibition
REPORTED: -0.5

MOLECULE: N#Cc1c(N)n(-c2ccccc2)c(=O)c2cc([N+](=O)[O-])ccc12
MEASURED_PARAMETER: inhibition
REPORTED: 36.6

MOLECULE: O=C(NCc1ccccc1)NC(O)C(Cl)(Cl)Cl (configuration not stated)
MEASURED_PARAMETER: inhibition
REPORTED: 0.1

MOLECULE: Clc1cccc(-c2nnc3sc(-c4ccc5c(c4)OCO5)nn23)c1
MEASURED_PARAMETER: inhibition
REPORTED: 6

MOLECULE: CC(=O)c1cn(CC(=O)Nc2ccc(C)cc2C)c2ccccc12
MEASURED_PARAMETER: inhibition
REPORTED: -0.4

MOLECULE: O=C(CN1C2CCCC1CC(NC(=O)c1ccccc1)C2)Nc1nccs1 (configuration not stated)
MEASURED_PARAMETER: inhibition
REPORTED: -12.4

MOLECULE: Cc1cc(C)c(S(=O)(=O)/N=C2/C=C(SCC(=O)O)C(=O)c3ccccc32)cc1C
MEASURED_PARAMETER: inhibition
REPORTED: -32.3

MOLECULE: CC[n+]1c(/C=C/N(C)c2ccccc2)oc2ccc(F)cc21
MEASURED_PARAMETER: inhibition
REPORTED: 26.2

MOLECULE: COc1cccc(-n2c(N)c(C#N)c3ccc([N+](=O)[O-])cc3c2=O)c1
MEASURED_PARAMETER: inhibition
REPORTED: 16.8

MOLECULE: CC1CC1C(=O)OCC(=O)NCc1ccc(Cl)cc1Cl (configuration not stated)
MEASURED_PARAMETER: inhibition
REPORTED: -7.7

MOLECULE: COC(=O)/C=C1/N/C(=N\c2nc(C)cc(C)n2)N(c2cccc(C)c2)C1=O
MEASURED_PARAMETER: inhibition
REPORTED: 50.4

MOLECULE: CN1CCN(C(=O)c2ccccc2NC(=O)C(C)(C)C)CC1
MEASURED_PARAMETER: inhibition
REPORTED: 10.4

MOLECULE: Nn1c(SCc2ccccc2)nc2c(cnn2-c2ccccc2)c1=O
MEASURED_PARAMETER: inhibition
REPORTED: 4.9

MOLECULE: COc1ccc(CNC(=O)CN(c2ccccc2)S(=O)(=O)c2ccccc2[N+](=O)[O-])cc1
MEASURED_PARAMETER: inhibition
REPORTED: -11.2

MOLECULE: O=C(NCc1ccco1)C(C(=O)c1ccccc1)n1ccccc1=O (configuration not stated)
MEASURED_PARAMETER: inhibition
REPORTED: 1

MOLECULE: CC[n+]1c(/C=C/N(C)c2ccccc2)oc2ccccc21
MEASURED_PARAMETER: inhibition
REPORTED: 36.4
